Target: mPGES-1 in A549 cells (Homo sapiens (Human))
Sequence (O14684 whole entry): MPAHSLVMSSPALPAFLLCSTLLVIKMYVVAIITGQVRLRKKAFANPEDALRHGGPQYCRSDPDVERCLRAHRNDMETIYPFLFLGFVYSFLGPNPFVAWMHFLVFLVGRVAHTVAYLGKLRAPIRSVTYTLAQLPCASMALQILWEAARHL
Test: A549 cell-based assay (PGE2 formation, 50% human serum)
Details: IL-1β 5 ng/ml, 10 nM arachidonic acid, 20-24 h, read-out: mPGES-1 inhibitory effect IC50 in the cell assay
Readout kind: IC50

Solved entries:
Compound: Cn1c(Nc2c(Cl)ccc(CNC(=O)[C@@](C)(O)C(F)(F)F)c2Cl)nc2cc(C(=O)Nc3cccc(C(F)(F)F)n3)c(N3CCC(C(F)(F)F)CC3)cc21 [Example 243]
IC50: 4.5 nM

Compound: CC(C)(O)Cn1c(Nc2c(Cl)ccc(CNC(=O)C(C)(C)C)c2Cl)nc2cc(C(=O)Nc3ccc(OC(F)(F)F)cc3)c(N3CCC(C(F)(F)F)CC3)cc21 [Example 167]
IC50: 2.4 nM

Compound: Cn1c(Nc2c(Cl)ccc(CNC(=O)c3ccc(O)cc3F)c2Cl)nc2cc(C(=O)NCCC(F)(F)F)c(N3CCC(C(F)(F)F)CC3)cc21 [Example 173]
IC50: 2 nM

Compound: COC(C)CN(C)c1cc2c(cc1C(=O)N[C@H]1CC[C@H](C(F)(F)F)CC1)nc(Nc1c(Cl)ccc(CNC(=O)C(C)(C)C)c1Cl)n2C (some centres unmarked) [Example 104]
IC50: 1 nM

Compound: Cn1c(Nc2c(Cl)ccc(CNC(=O)C(C)(C)C)c2Cl)nc2cc(C(=O)Nc3ccc(F)c(Cl)c3)c(NC3CC(F)(F)C3)cc21 [Example 15]
IC50: 23 nM

Compound: CN(c1cc2c(cc1C(=O)NCCC(F)(F)F)nc(Nc1c(Cl)ccc(CNC(=O)C(C)(C)F)c1Cl)n2C)C1CCC1 [Example 149]
IC50: 3 nM

Compound: Cn1c(Nc2c(Cl)ccc(CNC(=O)c3cn[nH]c3)c2Cl)nc2cc(C(=O)N[C@H]3CC[C@H](C(F)(F)F)CC3)c(N3CC4CC4C3)cc21 (some centres unmarked) [Example 221]
IC50: 53 nM

Compound: Cn1c(Nc2c(Cl)ccc(CNC(=O)C(C)(C)C)c2Cl)nc2cc(C(=O)N[C@H]3CC[C@H](C(F)(F)F)CC3)c(N3CCC3)cc21 [Example 96]
IC50: 21 nM

The recorded IC50 for Cn1c(Nc2c(Cl)ccc(CNC(=O)OC(C)(C)C)c2Cl)nc2cc(C(=O)NCCC(F)(F)F)c(N3CC4CC4C3)cc21 (centres unmarked) [Example 266] is 23 nM

The reported value for Cn1c(Nc2c(Cl)ccc(CNC(=O)C(C)(C)C)c2Cl)nc2cc(C(=O)Nc3cccc(C(F)(F)F)n3)c(N3CCC(C(F)(F)F)CC3)cc21 [Example 55] in terms of IC50 is 5 nM

Recorded IC50 (compound Cn1c(Nc2c(Cl)ccc(CNC(=O)C(C)(C)C)c2Cl)nc2cc(C(=O)N[C@H]3CC[C@H](C(F)(F)F)CC3)c(N3CC[C@@H](F)C3)cc21 [Example 19] ): 1 nM

Item: CC(C)(F)C(=O)NCc1ccc(Cl)c(Nc2nc3cc(C(=O)NCCC(F)(F)F)c(N4CCC(C(F)(F)F)CC4)cc3n2C(C)(C)CO)c1Cl [Example 269] | IC50: 55 nM

Record CN(CC(N)=O)c1cc2c(cc1C(=O)N[C@H]1CC[C@H](C(F)(F)F)CC1)nc(Nc1c(Cl)ccc(CNC(=O)C(C)(C)F)c1Cl)n2C [Example 111] , field IC50: 22 nM

Given item Cn1c(Nc2c(Cl)ccc(CNC(=O)C(C)(C)F)c2Cl)nc2cc(C(=O)Nc3ccc(F)c(Cl)c3)c(N3CC[C@@H](F)C3)cc21 [Example 235] , the value recorded as its IC50 is 4.4 nM

Looking up CN(CC(F)F)c1cc2c(cc1C(=O)Nc1ccc(F)c(Cl)c1)nc(Nc1c(Cl)ccc(CNC(=O)C(C)(C)C)c1Cl)n2C [Example 2] , I found its IC50 recorded as < 1 nM

// IC50 value for CN(c1cc2c(cc1C(=O)N[C@H]1CC[C@H](C(F)(F)F)CC1)nc(Nc1c(Cl)ccc(CNC(=O)C(C)(C)C)c1Cl)n2C)C1CCSC1 (some centres unmarked) [Example 117] : 2 nM

Entry under test: Cn1c(Nc2c(Cl)ccc(CNC(=O)C(C)(C)C)c2Cl)nc2cc(C(=O)N[C@H]3CC[C@H](C(F)(F)F)CC3)c(N3C[C@H]4C[C@@H](C3)[C@H]4O)cc21 [Example 126] . Its IC50 was 1 nM

GET /value?item= CN1CCN(c2cc3c(cc2C(=O)N[C@H]2CC[C@H](C(F)(F)F)CC2)nc(Nc2c(Cl)ccc(CNC(=O)C(C)(C)C)c2Cl)n3C)CC1=O [Example 25] &field=IC50 returns 12 nM

The reported IC50 of the compound Cn1c(Nc2c(Cl)ccc(CNC(=O)C(C)(C)C(F)(F)F)c2Cl)nc2cc(C(=O)NC3CC(F)(F)C3)c(N3CCC(C(F)(F)F)CC3)cc21 [Example 257] was 3.5 nM

Note to self: IC50 recorded for Cn1c(Nc2c(Cl)ccc(CNC(=O)C(C)(C)C)c2Cl)nc2cc(C(=O)N[C@H]3CC[C@H](C(F)(F)F)CC3)c(N3C4CCC3CC4)cc21 [Example 92] was 1.4 nM

Lab note: measured IC50 of Cn1c(Nc2c(Cl)ccc(CNC(=O)C(C)(C)C)c2Cl)nc2cc(C(=O)Nc3ccc(F)c(Cl)c3)c(N3CCC(C(F)(F)F)CC3)cc21 [Example 54] was 1.4 nM

// recorded IC50 for Cn1c(Nc2c(Cl)ccc(CNC(=O)C(C)(C)F)c2Cl)nc2cc(C(=O)Nc3ccc(OC(F)(F)F)cc3)c(N3CCC(F)(F)CC3)cc21 [Example 140] : 5 nM

The compound listed as Cn1c(Nc2c(Cl)ccc(CNC(=O)C(C)(C)C)c2Cl)nc2cc(C(=O)N[C@H]3CC[C@H](C(F)(F)F)CC3)c(N3CCC(O)(C(F)(F)F)CC3)cc21 [Example 82] shows IC50 equal to 1 nM

Recorded values, source patent US8674113B2.
